Target: UniProtKB Q9WMX2
Sequence (Q9WMX2 1027-1208): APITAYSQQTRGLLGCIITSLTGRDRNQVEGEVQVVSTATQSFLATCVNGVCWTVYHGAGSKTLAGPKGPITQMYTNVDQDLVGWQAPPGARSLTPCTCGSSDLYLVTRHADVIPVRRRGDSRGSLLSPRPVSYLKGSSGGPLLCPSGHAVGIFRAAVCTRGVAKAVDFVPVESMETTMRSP
readout-kind: IC50

Which measured IC50 value corresponds to COc1ccc2c(O[C@H]3CC[C@H]4C(=O)N(C)CCCC/C=C\[C@@H]5C[C@@]5(C(=O)NS(=O)(=O)C5(C)CC5)NC(=O)[C@@H]4C3)cc(-c3nc(C(F)(F)F)cs3)nc2c1C [Compound 51] ? < 1000 nM

###

Target: HCV NS3-NS4A protease 4a (Hepatitis C virus genotype 4a)
Sequence (O39929 1027-1208): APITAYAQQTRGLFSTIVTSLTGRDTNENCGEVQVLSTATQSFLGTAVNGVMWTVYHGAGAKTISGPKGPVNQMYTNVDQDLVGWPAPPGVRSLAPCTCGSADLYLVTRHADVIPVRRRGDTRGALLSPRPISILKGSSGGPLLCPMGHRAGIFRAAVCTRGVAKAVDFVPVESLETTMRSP
readout-kind: IC50

Which measured IC50 value corresponds to COc1ccc2c(O[C@H]3CC[C@H]4C(=O)N(C)CCCC/C=C\[C@@H]5C[C@@]5(C(=O)NS(=O)(=O)C5(C)CC5)NC(=O)[C@@H]4C3)cc(-c3nc(C(F)(F)F)cs3)nc2c1C [Compound 51] ? < 1 µM
